# viability at 28.5 h, 10 µM per entry
Experiment: in vitro
Conditions: human, hela cells, % viability
Give the value, in units of %, as a plain number.

CN(C)c1ccc(C(=O)N2CCN3C(=O)[C@H](Cc4ccc(F)cc4)NC(=O)[C@H]3C2)cc1 = 109
CCOC(=O)n1c(=O)n2n(c1=O)CC=CC2 = 93.9
c1ccc(C(Nc2cnccn2)C2CC2)cc1 (stereo not shown) = 106

Incoming: Give the reported viability at 28.5 h, 10 µM for this compound. Cc1nc(S(=O)(=O)Cc2nccn2C)n(CC2CCCO2)c1C (stereo not shown)
Outgoing: 87

Incoming: Give the reported viability at 28.5 h, 10 µM for this compound. `Cc1nnc2sc(-c3ccncc3)nn12`
Outgoing: 84.6

Incoming: Give the reported viability at 28.5 h, 10 µM for this compound. `Cc1ccc(-c2cncc(N(C)CCN(C)C)n2)cc1C`
Outgoing: 112

Incoming: Give the reported viability at 28.5 h, 10 µM for this compound. `CN(Cc1ccccc1)C(=O)CNS(=O)(=O)c1ccc([N+](=O)[O-])cc1`
Outgoing: 107

Incoming: Give the reported viability at 28.5 h, 10 µM for this compound. `O=C(NCC1(O)CCSCC1)c1cc2ccccc2[nH]1`
Outgoing: 94.9

Incoming: Give the reported viability at 28.5 h, 10 µM for this compound. COc1ccc(/C=C(\C)C(=O)Nc2cccnc2N2CCNCC2)cc1OC [CBK034124T]
Outgoing: 88.3

Incoming: Give the reported viability at 28.5 h, 10 µM for this compound. `CCOc1cccc(-c2cn3ccnc3c(NC3CC3)n2)c1`
Outgoing: 91.6

---

Assay: in vitro
Details: human, hela cells, % viability
VALUE_TYPE: viability at 28.5 h, 10 µM (%)
Give the value, in units of %, as a plain number.

N#CCCN(C(=O)NCc1ccc(F)cc1)C1CCCCC1 [CBK156372] = 86.5
CN1CCN(C(=O)c2ccsc2NS(=O)(=O)c2ccc(-c3ccccc3)cc2)CC1 [CBK042274] = 103
O=C(N/N=C/c1cccc(Oc2ccccc2)c1)c1ccncc1 [CBK261955] = 95.6

Incoming: Give the reported viability at 28.5 h, 10 µM for this compound. N#CCCn1cc(C(=O)N2CCCCC2)c(-c2cc3ccccc3o2)n1 [CBK306206]
Outgoing: 95.1

Incoming: Give the reported viability at 28.5 h, 10 µM for this compound. OC1(c2ccc(F)cc2)CCCC2CN(Cc3cccnc3)CC21 (centres unmarked) [CBK284377]
Outgoing: 86.8

Incoming: Give the reported viability at 28.5 h, 10 µM for this compound. O=C(O)CSc1nc2ccc([N+](=O)[O-])cc2[nH]1 [CBK265192]
Outgoing: 86.9

Incoming: Give the reported viability at 28.5 h, 10 µM for this compound. COC(=O)c1cccc(OCC(O)Cn2nc(C)c(C)c(C#N)c2=O)c1 (centres unmarked) [CBK305563]
Outgoing: 85.3

Incoming: Give the reported viability at 28.5 h, 10 µM for this compound. Cc1onc(-c2ccccc2)c1C(=O)NCCCn1ccnc1 [CBK262870]
Outgoing: 96.2

Incoming: Give the reported viability at 28.5 h, 10 µM for this compound. Cc1cc(O)cc(=O)n1Cc1ccccn1 [CBK291159]
Outgoing: 91.8

Incoming: Give the reported viability at 28.5 h, 10 µM for this compound. COc1ccc(Cl)cc1Nc1nc(N)nc(CC(=O)CSc2ccc(C)cc2)n1 [CBK265200]
Outgoing: 90.2

Incoming: Give the reported viability at 28.5 h, 10 µM for this compound. CCCN1CCC(CNC(=O)c2cc(C3CCCCC3)no2)CC1 [CBK283297]
Outgoing: 98.2
